Cited source for all entries: PubChem BioAssay (EPA / NIEHS)

Read-out: Urokinase-type plasminogen activator receptor (uPAR), PLAUR (gene 5329)
assayProcedure: BSK_BE3C_uPAR: BioMAP Diversity Plus: BE3C Assay for Urokinase-type plasminogen activator receptor (uPAR) Biomarker Activity (AID 2283039)
measurementParameters: primary human bronchial epithelial cells; actives raise or lower the signal
Active and inactive are the calls of the source. Rule for the calls: active = hit-call score of the fitted dose curve at least 0.9, where 1 is the maximum; inactive = score below 0.9.
Classes used: 1 for active, -1 for inactive

- compound: "COc1ccc(S(=O)(=O)N2C(=O)[C@@](c3ccccc3OC)(N3C[C@H](O)C[C@H]3C(=O)N(C)C)c3cc(Cl)ccc32)c(OC)c1"
  cat: -1
- compound: "CN[C@H]1CC[C@@H](c2ccc(Cl)c(Cl)c2)c2ccc(S(N)(=O)=O)cc21"
  cat: 1
- compound: "CC1=C(/C=C/C(C)=C/C=C/C(C)=C/CO)C(C)(C)CCC1"
  cat: -1
- compound: "Nc1ccc(S(=O)(=O)c2ccc(N)cc2)cc1"
  cat: -1
- compound: "CCCCOC(=O)CCCCCCCCC(=O)OCCCC"
  cat: -1
- compound: "CC(=O)C(C)=CC1C(C)=CCCC1(C)C (stereo not drawn)"
  cat: -1
- compound: "CC1(C)CC(N=C=O)CC(C)(CN=C=O)C1 (stereo not drawn)"
  cat: -1
- compound: "CC(=O)OC/C=C(\\C)CCC=C(C)C"
  cat: -1
- compound: "CNCc1cc(F)ccc1Oc1ccc(Cl)c(Cl)c1"
  cat: -1
- compound: "Cc1ccc(Cl)cc1"
  cat: -1
- compound: "C=CCc1ccc(O)c(OC)c1"
  cat: -1
- compound: "Oc1ccc2c(c1)OC[C@@H](N1CCC(O)(c3ccc(F)cc3)CC1)[C@H]2O"
  cat: -1
- compound: "Cc1ccc(N(C)C)cc1"
  cat: -1
- compound: "CCCCN(CCCC)CCCC"
  cat: -1
- compound: "O=c1[nH]cc(F)c(=O)[nH]1"
  cat: -1
- compound: "Cc1nc(-c2ccc3c(c2)CCN(CCC2CCC(NC(=O)/C=C/c4ccc(F)cc4)CC2)CC3)no1 (stereo not drawn)"
  cat: -1
- compound: "O=C(O)CCCCC(=O)O"
  cat: -1
- compound: "CCOc1ccc2c(c1)C(C)=CC(C)(C)N2"
  cat: -1
- compound: "CCCCCC(=O)O"
  cat: -1
- compound: "CN1CCCC1=O"
  cat: -1
- compound: "Cc1cccc(C)c1O"
  cat: -1
- compound: "C1CCC(SSC2CCCCC2)CC1"
  cat: -1
- compound: "COC(=O)c1ccc(O)cc1"
  cat: -1
- compound: "c1cc(-c2ccncc2)ccn1"
  cat: -1
- compound: "CCNc1cccc(C)c1"
  cat: -1
- compound: "Cc1ccc(C)c(O)c1C"
  cat: -1
- compound: "COc1ccc(C)cc1N"
  cat: -1
- compound: "CC(=O)OCCOCCOCCOC(C)=O"
  cat: -1
- compound: "Nc1ccc2c(c1)C(=O)c1ccccc1C2=O"
  cat: -1
- compound: "C[Si]1(C)O[Si](C)(C)O[Si](C)(C)O[Si](C)(C)O1"
  cat: -1
- compound: "CCOC(=O)C(C)(C)Oc1ccc(Cl)cc1"
  cat: -1
- compound: "CCCCC(CC)COC(=O)CC(C(=O)OCC(CC)CCCC)S(=O)(=O)O (stereo not drawn)"
  cat: 1
- compound: "Nc1ccccc1N"
  cat: -1
- compound: "OC[C@@H](O)[C@@H](O)[C@H](O)[C@H](O)CO"
  cat: -1
- compound: "CCCCCCCCCCC"
  cat: -1
- compound: "COc1cc(-c2nc(NC(=O)c3cc4cc(C)cc(C)c4n3CC(=O)O)sc2CCC2CCCCC2)c(OC)cc1Cl"
  cat: 1
- compound: "CCCCCCCC=O"
  cat: -1
- compound: "C=CCOC(=O)c1ccccc1C(=O)OCC=C"
  cat: -1
- compound: "Cc1ccc(C(C)C)c(O)c1"
  cat: -1
- compound: "CCCCc1ccc2c(n1)[C@@H](c1ccc(OC)cc1C[C@H](C)C(=O)O)[C@H](C(=O)O)[C@H]2c1ccc2c(c1)OCO2"
  cat: -1
- compound: "CNC(=O)[C@H]1O[C@@H](n2cnc3c(NCc4cc(Cl)ccc4OCc4cc(C)no4)ncnc32)[C@H](O)[C@@H]1N"
  cat: -1
- compound: "NC(=O)Cn1c(=O)cc(CCN2CCN(c3nccc4sccc34)CC2)c2ccc(F)cc21"
  cat: -1
- compound: "O=c1c(O)c(-c2ccc(O)c(O)c2)oc2cc(O)cc(O)c12"
  cat: -1

* * *

Read-out: Bcl-2 (BID) gene, BID (gene 637)
assayProcedure: LTEA_HepaRG_BID: Life Technologies and Expression Analysis (LTEA) Assay for Bcl-2 (BID) gene using HepaRG (AID 2283476)
measurementParameters: mRNA level, 48 h; actives raise or lower the signal
The source made the active and inactive calls. How the source made its calls: active means hit-call score of the fitted dose curve at least 0.9, where 1 is the maximum; inactive means score below 0.9.
Classes used: Yes for active, No for inactive

- inputSmiles: "O=c1c(O)c(-c2ccc(O)c(O)c2)oc2cc(O)cc(O)c12"
  cat: "No"
- inputSmiles: "CN1CCN(Cc2cc(-c3ccc4[nH]c(=O)oc4c3)co2)[C@@H](c2ccc(F)cc2)C1"
  cat: "No"
- inputSmiles: "COc1cc(-c2nc(NC(=O)c3cc4cc(C)cc(C)c4n3CC(=O)O)sc2CCC2CCCCC2)c(OC)cc1Cl"
  cat: "Yes"
- inputSmiles: "Nc1ccc(S(=O)(=O)c2ccc(N)cc2)cc1"
  cat: "No"
- inputSmiles: "Oc1ccc2ccccc2c1N=Nc1ccccc1"
  cat: "No"
- inputSmiles: "CCCCCCCCCCCCCCCC"
  cat: "No"

* * *

Read-out: Macrophage colony-stimulating factor (MCSF), CSF1 (gene 1435)
assayProcedure: BSK_hDFCGF_MCSF: BioMAP Diversity Plus: hDFCGF Assay for Macrophage colony-stimulating factor (MCSF) Biomarker Activity (AID 2283060)
measurementParameters: primary human foreskin fibroblasts; actives raise or lower the signal
Active and inactive are the calls of the source. How the source made its calls: active means hit-call score of the fitted dose curve at least 0.9, where 1 is the maximum; inactive means score below 0.9.
Classes used: Y = active, N = inactive

- molecule: "Oc1ccc2ccccc2c1N=Nc1ccccc1"
  cat: "N"
- molecule: "C1CCC(SSC2CCCCC2)CC1"
  cat: "Y"
- molecule: "CCCCN(CCCC)CCCC"
  cat: "N"
- molecule: "CC1(C)CC(N=C=O)CC(C)(CN=C=O)C1 (centres undefined)"
  cat: "N"

* * *

Read-out: E-selectin (Homo sapiens) (UniProt P16581)
Sequence (P16581 whole entry, looked up): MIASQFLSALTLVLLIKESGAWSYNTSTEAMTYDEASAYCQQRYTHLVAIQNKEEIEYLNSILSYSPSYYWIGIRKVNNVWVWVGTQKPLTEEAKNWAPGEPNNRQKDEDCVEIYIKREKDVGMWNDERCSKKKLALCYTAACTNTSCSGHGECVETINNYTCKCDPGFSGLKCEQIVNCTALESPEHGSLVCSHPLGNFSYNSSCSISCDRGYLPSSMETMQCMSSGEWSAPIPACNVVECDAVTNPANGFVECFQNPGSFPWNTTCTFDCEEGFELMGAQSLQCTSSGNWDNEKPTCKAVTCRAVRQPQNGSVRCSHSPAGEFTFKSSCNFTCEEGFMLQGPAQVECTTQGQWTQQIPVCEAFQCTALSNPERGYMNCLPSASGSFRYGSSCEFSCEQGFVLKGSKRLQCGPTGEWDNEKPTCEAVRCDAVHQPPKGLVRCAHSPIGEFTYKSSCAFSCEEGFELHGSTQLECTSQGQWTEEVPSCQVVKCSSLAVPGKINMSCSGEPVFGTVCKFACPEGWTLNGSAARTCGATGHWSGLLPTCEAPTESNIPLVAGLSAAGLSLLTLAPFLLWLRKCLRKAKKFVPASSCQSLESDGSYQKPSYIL
assayProcedure: BSK_SAg_Eselectin: BioMAP Diversity Plus: SAg Assay for Eselectin Biomarker Activity (AID 2283091)
measurementParameters: primary human HUVEC with PBMC; actives raise or lower the signal
Experimental: BSK_SAg is a cell-based, multiplexed-readout assay that uses umbilical vein endothelium and peripheral blood mononuclear cells, a human vascular primary cell co-culture, with measurements taken at 24 hours after chemical dosing in a 96-well plate.BSK_SAg_Eselectin is an assay component measured in the BSK_SAg assay. It measures E-selectin antibody related to regulation of gene expression using ELISA technology.Data from the assay component BSK_SAg_Eselectin was analyzed into 1 assay endpoint. […]
The source made the active and inactive calls. The calls were made as follows: active = hit-call score of the fitted dose curve at least 0.9, where 1 is the maximum; inactive = score below 0.9.
Classes used: true (1) for active, false (0) for inactive

- molecule: "CCCCCCCC=O"
  cat: "false (0)"
- molecule: "CCCCCCOCCO"
  cat: "false (0)"
- molecule: "COCCOCCOC"
  cat: "false (0)"
- molecule: "Cc1nc(C)nc(N2C[C@@H](C)N(c3ccnc([C@@H](C)O)n3)[C@@H](C)C2)n1"
  cat: "false (0)"
- molecule: "Cc1c(C(=O)O)c(O)cc2c1C(=O)c1c(O)c([C@@H]3O[C@H](CO)[C@@H](O)[C@H](O)[C@H]3O)c(O)c(O)c1C2=O"
  cat: "false (0)"
- molecule: "COCCOC[C@H](CC1(C(=O)NC2CCC(C(=O)O)CC2)CCCC1)C(=O)Oc1ccc2c(c1)CCC2 (some centres undefined)"
  cat: "false (0)"
- molecule: "CCc1c(C(=O)NN2CCCCC2)nn(-c2ccc(Cl)cc2Cl)c1-c1ccc(Br)cc1"
  cat: "true (1)"
- molecule: "Cc1ccc(C)c(O)c1C"
  cat: "false (0)"
- molecule: "Cc1cccc([N+](=O)[O-])c1C"
  cat: "false (0)"

* * *

testTarget: Aryl hydrocarbon receptor (Homo sapiens) (UniProt P35869)
Sequence (P35869 whole entry, looked up): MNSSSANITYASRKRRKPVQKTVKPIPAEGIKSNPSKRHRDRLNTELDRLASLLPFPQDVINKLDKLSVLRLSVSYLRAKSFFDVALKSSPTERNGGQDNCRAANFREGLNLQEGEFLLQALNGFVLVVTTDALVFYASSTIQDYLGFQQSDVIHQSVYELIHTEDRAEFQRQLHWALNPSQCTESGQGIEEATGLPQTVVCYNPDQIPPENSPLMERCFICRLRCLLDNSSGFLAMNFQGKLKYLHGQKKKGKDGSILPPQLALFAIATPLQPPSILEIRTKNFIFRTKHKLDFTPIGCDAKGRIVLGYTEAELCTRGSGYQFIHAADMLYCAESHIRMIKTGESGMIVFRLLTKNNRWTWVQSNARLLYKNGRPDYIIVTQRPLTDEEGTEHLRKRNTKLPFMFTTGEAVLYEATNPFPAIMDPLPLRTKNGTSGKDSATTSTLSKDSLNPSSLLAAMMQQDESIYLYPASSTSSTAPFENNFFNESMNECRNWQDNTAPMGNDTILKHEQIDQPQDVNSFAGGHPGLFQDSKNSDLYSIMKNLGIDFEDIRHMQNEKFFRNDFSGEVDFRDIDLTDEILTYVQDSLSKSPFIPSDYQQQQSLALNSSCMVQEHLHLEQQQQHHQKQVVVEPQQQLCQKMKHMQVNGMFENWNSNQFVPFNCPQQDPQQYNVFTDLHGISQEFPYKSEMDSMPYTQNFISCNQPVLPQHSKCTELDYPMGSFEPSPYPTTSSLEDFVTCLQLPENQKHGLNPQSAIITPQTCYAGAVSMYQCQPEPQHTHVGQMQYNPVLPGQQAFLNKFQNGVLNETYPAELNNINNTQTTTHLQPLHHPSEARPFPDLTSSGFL
assayProcedure: ATG_Ahr_CIS: Attagene CIS-FACTORIAL HepG2 Assay for human Aryl Hydrocarbon Receptor (Ahr) (AID 2282930)
measurementParameters: HepG2 AhR cis-factorial reporter transcription; actives raise or lower the signal
Active and inactive are the calls of the source. The calls were made as follows: active = hit-call score of the fitted dose curve at least 0.9, where 1 is the maximum; inactive = score below 0.9.
Classes used: active, inactive

- molecule: "C=CCc1ccc(O)c(OC)c1"
  testTarget: "Aryl hydrocarbon receptor (Homo sapiens) (UniProt P35869)"
  cat: "inactive"
- molecule: "CCCCCCCCCCCCCO"
  testTarget: "Aryl hydrocarbon receptor (Homo sapiens) (UniProt P35869)"
  cat: "inactive"
- molecule: "COc1cc(-c2nc(NC(=O)c3cc4cc(C)cc(C)c4n3CC(=O)O)sc2CCC2CCCCC2)c(OC)cc1Cl"
  testTarget: "Aryl hydrocarbon receptor (Homo sapiens) (UniProt P35869)"
  cat: "active"
- molecule: "Cc1ccc(Cl)cc1"
  testTarget: "Aryl hydrocarbon receptor (Homo sapiens) (UniProt P35869)"
  cat: "inactive"
- molecule: "CCCCC(CC)COC(=O)CC(C(=O)OCC(CC)CCCC)S(=O)(=O)O (stereo not drawn)"
  testTarget: "Aryl hydrocarbon receptor (Homo sapiens) (UniProt P35869)"
  cat: "inactive"
- molecule: "CC1=C(/C=C/C(C)=C/C=C/C(C)=C/CO)C(C)(C)CCC1"
  testTarget: "Aryl hydrocarbon receptor (Homo sapiens) (UniProt P35869)"
  cat: "active"
- molecule: "Cc1cc(=O)[nH]c(=S)[nH]1"
  testTarget: "Aryl hydrocarbon receptor (Homo sapiens) (UniProt P35869)"
  cat: "inactive"
- molecule: "COc1ccc2c(c1)c(CC(=O)O)c(C)n2C(=O)c1ccc(Cl)cc1"
  testTarget: "Aryl hydrocarbon receptor (Homo sapiens) (UniProt P35869)"
  cat: "inactive"
- molecule: "c1cc(-c2ccncc2)ccn1"
  testTarget: "Aryl hydrocarbon receptor (Homo sapiens) (UniProt P35869)"
  cat: "inactive"
- molecule: "CCCCc1ccc2c(n1)[C@@H](c1ccc(OC)cc1C[C@H](C)C(=O)O)[C@H](C(=O)O)[C@H]2c1ccc2c(c1)OCO2"
  testTarget: "Aryl hydrocarbon receptor (Homo sapiens) (UniProt P35869)"
  cat: "inactive"
- molecule: "COc1ccc(C)cc1N"
  testTarget: "Aryl hydrocarbon receptor (Homo sapiens) (UniProt P35869)"
  cat: "active"
- molecule: "Cc1cc(NC(=O)C(=O)O)cc(C)c1Oc1ccc(O)c2c1CCC2"
  testTarget: "Aryl hydrocarbon receptor (Homo sapiens) (UniProt P35869)"
  cat: "inactive"
- molecule: "CCCCCCCC=O"
  testTarget: "Aryl hydrocarbon receptor (Homo sapiens) (UniProt P35869)"
  cat: "inactive"
